# test.method.notes: chemical genetic growth profiling, strain panel (AID 1159580);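 also: tested at 20 µM; growth read once vehicle control cultures reached saturation at 30 °C; 1 = growth at the plate median or of vehicle wells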
# test.context: S. cerevisiae deletion strains, growth OD, locus YNL322C, strain KRE1 (second series), stronger effect = lower value
Hit rate of the full screen: of about 5,500 compounds, about 2,000 (36%) were called active. Not shown: some 18% with an inconclusive outcome. This is one part of the list.
Rule for this label: MET means normalized growth is less than 1; NOT MET means normalized growth is at least 1.

CCCCC(CC)CN=C(N)NC(N)=NCCCCCCN=C(N)NC(N)=NCC(CC)CCCC (stereo unspecified)	MET
CCOP(=S)(OCC)Oc1ccc2c(C)c(Cl)c(=O)oc2c1	MET
CC(COc1ccccc1)N(CCCl)Cc1ccccc1 (stereo unspecified)	MET

Lab note: next compound to report on.
## Task Strictly below 1: is that where normalized growth of CC1=C(/C=C/C(C)=C/C=C/C(C)=C/CO)C(C)(C)CCC1 sits?
## Result NOT MET

###

# test.method.notes: chemical genetic growth profiling, strain panel (AID 1159580);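 also: tested at 20 µM; growth read once vehicle control cultures reached saturation at 30 °C; 1 = growth at the plate median or of vehicle wells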
# test.context: S. cerevisiae deletion strains, growth OD, locus YOR184W, strain ser1
About 2,000 (36%) of roughly 5,500 compounds were called active. Another 18% or so got no clear call; they are omitted. Cut-off read from the data, not from the text of the source: active = normalized growth mostly below about 0.91 (no sharp cut-off); inconclusive = no clear call, values can overlap the other calls; inactive = mostly above about 0.92. The list shows a part of the results.
Would you mind answering with one of these outcomes? 1.0 (active), 0.0 (inactive)

The examples below pair each entry with its known result.
C[C@](N)(Cc1ccc(O)c(O)c1)C(=O)O	0.0
C=CCN1CC[C@]23c4c5ccc(O)c4OC2C(=O)CC[C@@]3(O)[C@H]1C5 (some centres not stated)	0.0
CC1=C(/C=C/C(C)=C/C=C/C(C)=C/C=C/C=C(C)/C=C/C=C(C)/C=C/C2=C(C)CCCC2(C)C)C(C)(C)CCC1	0.0

## Task What is the recorded call for this compound in the test? CN1CCc2cccc3c2C1Cc1ccc(O)c(O)c1-3 (configuration not stated)
## Result 0.0

## Task What is the recorded call for this compound in the test? CCn1cc(C(=O)O)c(=O)c2cnc(N3CCCC3)nc21
## Result 0.0

## Task What is the recorded call for this compound in the test? CCOC(N)=O
## Result 0.0

## Task What is the recorded call for this compound in the test? C[C@@H]1CC2C3CCC4=CC(=O)C=C[C@]4(C)[C@@]3(F)[C@@H](O)C[C@]2(C)[C@@]1(O)C(=O)COP(=O)(O)O (some centres not stated)
## Result 0.0

## Task What is the recorded call for this compound in the test? CCOC(=O)c1ccc(N)cc1
## Result 0.0

## Task What is the recorded call for this compound in the test? CC(=O)OCC(=O)[C@@]12OC(C)(C)O[C@@H]1CC1C3C[C@H](F)C4=CC(=O)C=C[C@]4(C)[C@@]3(F)[C@@H](O)C[C@@]12C (some centres not stated)
## Result 0.0

###

Known normalized growth of a selection of compounds
# test.method.notes: chemical genetic growth profiling, strain panel (AID 1159580);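 also: tested at 20 µM; growth read once vehicle control cultures reached saturation at 30 °C; 1 = growth at the plate median or of vehicle wells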
# test.context: S. cerevisiae deletion strains, growth OD, locus YER016W, strain bim1, stronger effect = lower value
Out of some 5,500 compounds screened, about 2,000 (36%) were called active. About 18% were inconclusive and are not listed. The list shows a part of the results.
The answer should be written as a number, with no unit following it.

Take a look at these entries with their results.
C[C@H](COc1ccccc1)N[C@H](C)[C@H](O)c1ccc(O)cc1	1.01
CN(Cc1cnc2nc(N)nc(N)c2n1)c1ccc(C(=O)NC(CCC(=O)O)C(=O)O)cc1 (stereo not given)	0.965
O=C(O)CCC(=O)c1ccc(-c2ccccc2)cc1	0.995
COc1cc(/C=C/C(=O)O)cc(OC)c1OC	0.99

Now look at this one.
Lookup result for CC(=O)OCC(=O)[C@@]12OC(C)(C)O[C@@H]1CC1C3C[C@H](F)C4=CC(=O)C=C[C@]4(C)[C@@]3(F)[C@@H](O)C[C@@]12C (stereo not given in full) ; measured normalized growth: 1.01
